Experiment: NCI Yeast Anticancer Drug Screen. Data for the wt2 strain (AID 169);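 note: 0% = growth of vehicle-treated yeast cultures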
Settings: S. cerevisiae wt2 strain growth inhibition; at 33.0 µM; stronger effect = higher value
Method: Growth inhibition of yeast strains with defined genetic alterations is measured as a screen for potential anti-cancer activity. Selected strains with alterations in DNA damage repair or cell cycle control were exposed to compounds and growth inhibition was measured relative to vehicle treated controls. The strain used in this assay is wt2
This is part of a sample that, as a whole, favours compounds with a hit. Of some 79,000 tested, about 15% had one in any assay.
Provide the recorded growth inhibition for the entries that follow.
Answers are plain numbers, in %.

# annotated cases, reported growth inhibition shown
[[record]]
compound = "CC(C)OC(=O)Nc1ccc2nc(-c3cscn3)[nH]c2c1"
value_observed = 2

[[record]]
compound = "Nc1nc(N)c2nc(CNc3ccc(C(=O)NC(CCC(=O)O)C(=O)O)cc3F)cnc2n1 (stereo unspecified)"
value_observed = 2

[[record]]
compound = "CC(C)OC(=O)c1ccc(CCc2cc(O)c(Br)cc2O)cc1"
value_observed = 98


Could you report growth inhibition for every entry in the following list?
1. c1ccc2cc(NCNc3ccc4ccccc4c3)ccc2c1
2. COC(=O)C1(C)CCc2c(ccc3ccccc23)C1=O (stereo unspecified)

OUT:
1: 7; 2: -5

Lab note: each compound below needs its growth inhibition filled in.
1. CC1OC(O[C@H]2/C=C/C=C/C=C/C=C/C=C/C=C/C=C/[C@H](C)[C@@H](O)[C@@H](C)[C@H](C)OC(=O)C[C@H](O)C[C@H](O)CC[C@@H](O)[C@H](O)C[C@H](O)C[C@]3(O)C[C@H](O)[C@@H](C(=O)O)[C@H](C2)O3)C(O)C(N)C1O (stereo partly specified)
2. CCOC(=O)C(C(=O)OCC)=P(c1ccccc1)(c1ccccc1)c1ccccc1

OUT:
[98, -9]

Batch lookup, growth inhibition per entry.
1. CCCCOP(=O)(CCCP(=O)(OCCCC)OCCCC)OCCCC
2. CN(C)Cc1cc(N=Nc2ccc(Cl)cc2)ccc1OC(=O)c1ccccc1

OUT:
[0, 21]
